Please go through the items and note down their recombinant UMI read abundance (log10).
experimental.details: recombinant UMI read abundance after kanamycin selection (control-corrected) (log10(CPM+1)); higher = more efficient recombination; extreme values may be limits of the assay; sequences stand for … in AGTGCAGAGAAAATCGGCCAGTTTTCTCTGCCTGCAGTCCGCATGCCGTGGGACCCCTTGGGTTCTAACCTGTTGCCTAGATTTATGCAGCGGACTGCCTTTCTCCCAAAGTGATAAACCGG…AGGTTGGTTTCACT; site = the 11-nt donor;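 also: IS621 bridge recombinase in Escherichia coli cells against a fixed T5 target plasmid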
Number only, no unit.

Short answer for CGGACTACATGGACCGGTTTTCCCGGTAATCCGTATTTGAC (site TGGACTACTGT) : recombinant UMI read abundance (log10) was 1.51

Short answer for TGAAGTCCATGGACCGGTTTTCCCGGTAATCCGTATTTGTA (site TTAAGTCCTTA) : recombinant UMI read abundance (log10) was 0.888

Short answer for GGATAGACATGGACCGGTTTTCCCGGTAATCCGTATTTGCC (site GGAGAGACTGG) : recombinant UMI read abundance (log10) was 0

Short answer for CAAGAAGCATGGACCGGTTTTCCCGGTAATCCGTATTTGCT (site CAAGAAGCTAG) : recombinant UMI read abundance (log10) was 1.55

Short answer for CGCCACACATGGACCGGTTTTCCCGGTAATCCGTATTTGTA (site CGCCACACTTA) : recombinant UMI read abundance (log10) was 1.95

Short answer for ATTCTCTCATGGACCGGTTTTCCCGGTAATCCGTATTTGTA (site GTTCTCTCTTA) : recombinant UMI read abundance (log10) was 1.52

Short answer for AACTTGACATGGACCGGTTTTCCCGGTAATCCGTATTTGCT (site AACTTGACTAG) : recombinant UMI read abundance (log10) was 0.971

Short answer for ATACTATCATGGACCGGTTTTCCCGGTAATCCGTATTTGAC (site CTAGTATCTGT) : recombinant UMI read abundance (log10) was 0

Short answer for AATGGAACATGGACCGGTTTTCCCGGTAATCCGTATTTGCT (site AATGAAACTAG) : recombinant UMI read abundance (log10) was 0.482
